Reported Percent Effect values are given for each entry in this list.
target: Tyrosyl-tRNA synthetase, putative (Trypanosoma cruzi (strain CL Brener)); experiment: Trypanosoma cruzi tyrosyl tRNA synthetase (TcYRS) _High Tyrosine SOP; type: functional; design: scale not given: in the data most compounds retested in dose-response had high values; details: 30 µM
Property label: Percent Effect

INSERT INTO measurements (compound, result) VALUES
  ('CC(=O)c1cccc(OCCCC(=O)N(C)Cc2cccc(O)c2)c1', '-0.529%'),
  ('CC(C)(C)c1ccc(C2(C(=O)NCCCS(C)(=O)=O)CC2)cc1', '1.07%'),
  ('CC(C)Oc1cccc(C(=O)C2CCCN(C(=O)c3ncn[nH]3)C2)c1 (centres undefined)', '6.88%'),
  ('Cc1ccc(S(=O)(=O)N2CCOc3ccccc32)cc1C(=O)O', '-7.18%'),
  ('CCOc1c(Cl)cccc1NCc1cc(C)on1', '8.13%'),
  ('CCCNC(=O)Nc1cc2c(cc1SC)OCCO2', '8.91%'),
  ('CCc1cc(C(=O)N2CCC(Nc3ccc(C)nn3)CC2)sc1C', '5.79%'),
  ('Cc1cccc(C(=O)N2C[C@@H](OCc3cccnc3)[C@H]3OCCC[C@@H]32)n1', '8.95%'),
  ('O=c1cc2c(nn1CN1CCOCC1)CCC2', '6.35%'),
  ('O=C(Nc1cc(C(F)(F)F)c[nH]c1=O)c1ccco1', '6.4%'),
  ('Cc1ccoc1C(=O)N1CCOCC2(CCN(c3ncccn3)C2)C1 (centres undefined)', '7.53%'),
  ('O=C(CSc1ccccn1)N1C[C@H]2CC[C@@H]1CN(Cc1cscn1)C2', '-3.72%'),
  ('COc1ccc(OC)c(CCNC(=O)NC(C)Cn2ccnc2)c1 (centres undefined)', '-1.47%'),
  ('CCc1nc(N)sc1C(=O)N1CCCC(CCc2ccccc2C)C1 (centres undefined)', '9.68%'),
  ('N#Cc1cccc(CS(=O)(=O)NCC(O)Cc2ccccc2)c1 (centres undefined)', '0.546%'),
  ('COc1c(CNCc2cccc(CN(C)C)c2)c(C)nn1C', '4.43%'),
  ('CCN1CC2(CC1=O)CN(Cc1cnn(C)c1)CCN(C(=O)C(C)C)C2 (centres undefined)', '7.92%'),
  ('Cc1ccc(C#N)cc1NC(=O)NC1CCCN(c2ncccn2)C1 (centres undefined)', '3.92%'),
  ('Cc1n[nH]c(C2CN(C(=O)Cn3ccccc3=O)CCO2)n1 (centres undefined)', '0%'),
  ('Cc1cc(C)n(C2CN(CC(=O)N(C)Cc3ccc(C)o3)C2)n1', '34%'),
  ('CCN1CC(C(=O)NCc2ccnc(-n3ccnc3C)c2)CC1=O (centres undefined)', '-1.07%'),
  ('O=S(=O)(C1CC1)N1CCO[C@H]2[C@H](OCC3CCCC3)CC[C@@H]21', '0%'),
  ('CS(=O)(=O)c1snnc1C1CCN(Cc2ccncc2)CC1', '0%'),
  ('COCCN(C)C[C@@H]1CCC[C@@H]2CN(c3cc(OC)ncn3)C[C@@H]21', '7.89%');

---

biological target: Ubiquitin-activating enzyme e1, putative (Leishmania donovani (strain BPK282A1)) (UniProt E9BSI1); test: Leishmania donovani Ubiquitin Activating Enzyme (LdE1); format: functional; design: scale not given: direction of the effect not stated beside the values; conditions: 30 µM
Sequence (E9BSI1 as listed by the source): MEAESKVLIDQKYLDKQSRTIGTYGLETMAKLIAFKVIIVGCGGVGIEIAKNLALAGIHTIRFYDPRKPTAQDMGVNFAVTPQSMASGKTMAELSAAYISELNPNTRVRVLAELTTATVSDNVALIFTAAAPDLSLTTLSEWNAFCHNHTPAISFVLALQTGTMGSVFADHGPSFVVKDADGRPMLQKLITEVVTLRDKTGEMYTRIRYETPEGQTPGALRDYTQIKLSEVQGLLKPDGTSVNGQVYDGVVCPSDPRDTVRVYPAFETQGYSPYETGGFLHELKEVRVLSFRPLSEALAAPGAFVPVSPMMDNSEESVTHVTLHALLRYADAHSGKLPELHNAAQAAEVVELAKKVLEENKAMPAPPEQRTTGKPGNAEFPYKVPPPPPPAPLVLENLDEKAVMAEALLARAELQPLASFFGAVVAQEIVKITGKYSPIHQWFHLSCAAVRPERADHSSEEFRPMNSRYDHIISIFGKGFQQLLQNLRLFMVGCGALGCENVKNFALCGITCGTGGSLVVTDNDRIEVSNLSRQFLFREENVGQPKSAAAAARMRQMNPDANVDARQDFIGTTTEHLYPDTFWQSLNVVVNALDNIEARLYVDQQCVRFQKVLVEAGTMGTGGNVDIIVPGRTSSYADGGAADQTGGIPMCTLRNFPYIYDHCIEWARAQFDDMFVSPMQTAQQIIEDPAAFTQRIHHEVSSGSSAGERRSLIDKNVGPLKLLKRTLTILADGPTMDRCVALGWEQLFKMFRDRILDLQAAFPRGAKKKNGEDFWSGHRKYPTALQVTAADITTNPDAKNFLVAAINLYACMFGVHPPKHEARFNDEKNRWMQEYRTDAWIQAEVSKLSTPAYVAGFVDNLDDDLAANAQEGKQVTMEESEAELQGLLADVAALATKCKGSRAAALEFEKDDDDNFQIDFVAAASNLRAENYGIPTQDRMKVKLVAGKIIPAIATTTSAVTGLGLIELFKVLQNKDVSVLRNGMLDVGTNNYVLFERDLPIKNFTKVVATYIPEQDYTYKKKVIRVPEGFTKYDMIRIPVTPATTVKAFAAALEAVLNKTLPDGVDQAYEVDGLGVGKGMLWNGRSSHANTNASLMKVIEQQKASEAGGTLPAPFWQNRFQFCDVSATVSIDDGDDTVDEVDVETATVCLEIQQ
Measured potencies and affinities stand elsewhere.
Reported Percent Effect values are given for each entry in this list.
Property label: Percent Effect (%)

INSERT INTO results (compound, output_unit, quantitative_readout) VALUES
  ('O=C(CCc1ccccc1)N1CCn2cc(CN3CCCC3)nc2C1', '%', 5.2),
  ('CC(=O)N1CCN(C(=O)CCOc2ccc(C(C)C)cc2)CC1', '%', 7.89),
  ('O=C(O)c1cc(-c2cccnc2)cc(S(=O)(=O)N2CCCCCC2)c1', '%', 5.41),
  ('O=C(NCC1CC1)C1CCC2(CCN(C(=O)c3ccccn3)CC2)O1 (stereo unspecified)', '%', 1.3),
  ('CNC(=O)N1CCc2cc(C(=O)N(C)C)c(NCC3CC3)nc2CC1', '%', 8.11),
  ('COC(=O)[C@H](C)NC(=O)c1cc(-c2cccc(Cl)c2)no1', '%', 5.26),
  ('Cc1ncccc1O[C@H]1CCN(C(=O)c2cccs2)CC[C@@H]1O', '%', -9.46),
  ('O=C(c1ccc[nH]1)N1CCC2(CC1)C(=O)Nc1ccccc12', '%', 16.2),
  ('CSCc1cccc(S(=O)(=O)NCCCn2ccnc2)c1', '%', -23.4),
  ('Cc1ccc2c(c1)CN(C(=O)c1ccccc1F)C(CN(C)C)CO2 (stereo unspecified)', '%', 12.2),
  ('O=C(NCCC1CCCO1)c1ccccc1N1CCOCC1 (stereo unspecified)', '%', 2.74);

---

molecular target: Sialic acid-binding Ig-like lectin 9 (Homo sapiens); experiment: Hs-Siglec9 ALPHAscreen SOP 20170721; set-up: scale not given: direction of the effect not stated beside the values; conditions: 10 µM
Property label: Percent Effect (%)

INSERT INTO measurements (compound, output_unit, quantitative_readout) VALUES
  ('CC(C)SCC(=O)N1CCc2c(nc(N(C)C)nc2N(C)C)C1', '%', 19.7),
  ('CC(=O)N1CCC2(CC1)COCCN2CCN(C)C', '%', 4.02),
  ('c1cnn(CC2CCCN2c2ncnc3ccsc23)c1 (centres undefined)', '%', -4.74),
  ('O=C(NCc1cc[nH]n1)NCC(c1ccco1)N1CCCC1 (centres undefined)', '%', 17.4),
  ('c1cnc(N2CCOCC3(CCCN(CC4CC4)C3)C2)cn1 (centres undefined)', '%', 4.28),
  ('Cc1nn(C)c2c(NCc3cccnc3)nc(C3CC3)nc12', '%', 13.7),
  ('CCOc1ccccc1C(=O)N1CCCC1c1ncc2c(n1)CCNC2 (centres undefined)', '%', -1.2),
  ('CNC(=O)C1(CCCc2cccnc2)CCCCN1 (centres undefined)', '%', -8.22),
  ('O=C(CCc1ccccn1)N1CCN(C(=O)CC2CCCCC2)CC1', '%', -12.3),
  ('CCc1ccc(S(=O)(=O)Nc2cn(C)cc(Br)c2=O)cc1', '%', 18.4),
  ('CCCN1CCC(NC(=O)NCCc2nc(CC)c(C)s2)CC1', '%', 24.7),
  ('COc1cc(C)nc(N2CCN(C(=O)CNC(C)(C)C)CC2)n1', '%', -1.55),
  ('CCn1ncnc1C1CC(=O)NCc2nc3ccccn3c21 (centres undefined)', '%', 16.9),
  ('CN(Cc1nccn1CC(F)(F)F)C(=O)c1cccc(C#N)c1', '%', 3.82),
  ('c1cnc(-c2nc(CNCCn3cccn3)cs2)nc1', '%', -0.779),
  ('Cn1ccc(C(=O)N2CCN(c3ncccn3)CC2)cc1=O', '%', 9.56),
  ('COC[C@@]12CC[C@@H](N3CCOCC3)C[C@H]1CCN(c1ncccn1)C2', '%', 17.1),
  ('CCS(=O)(=O)N1CCO[C@H]2[C@H](OCCCn3cccn3)CC[C@@H]21', '%', -3.13),
  ('CN(Cc1ccc(F)cc1)[C@@H]1CN(C(=O)c2cccs2)C[C@H]1O', '%', -0.715),
  ('CC(C)C(C)NC(=O)Nc1ccccc1CN1CCOCC1 (centres undefined)', '%', 4.22),
  ('Cn1cc(-c2csc(CN3CCOCC3)n2)cn1', '%', 1.67),
  ('CCc1ccccc1CN1CC[C@@H](NC(=O)c2cccnc2)[C@H](O)C1', '%', 6.65),
  ('COCCN1C[C@@H]2CN(c3ncccn3)C[C@@H]2C1=O', '%', -6.74),
  ('CNC(=O)C1(c2cnccn2)CCCN1C(=O)c1ccccc1OC (centres undefined)', '%', -7.91);

---

Reported Percent Effect values are given for each entry in this list.
target: Chromo domain-containing protein 1 (Saccharomyces cerevisiae (strain ATCC 204508 / S288c) (Baker's yeast)); assay: ScCHD-1 Enzyme Inhibition Assay; format: functional; design: scale not given: in the data most compounds retested in dose-response had high values; conditions: 30 µM
Property label: Percent Effect (%)

INSERT INTO measurements (compound, quantitative_readout) VALUES
  ('CCc1nc(C2CCCN(C(=O)c3cn(C)nc3C)C2)no1 (stereo unspecified)', 65.5),
  ('Cc1nn(C)c(N2CCOCC2)c1CNC1CCc2cc(F)ccc21 (stereo unspecified)', -4.69),
  ('Cc1nc(C)c(CC(=O)Nc2ncc(C)s2)c(=O)[nH]1', -5.26),
  ('Cc1cccc(NC2CCN(C(=O)Nc3cc(C)on3)CC2)n1', -8.82),
  ('CC(=O)c1sc(Nc2ccc(Cl)cn2)nc1C', -10.7),
  ('CCn1nc(C)c2ncnc(NCCCN3CCOCC3)c21', -10.7);
